For each entry below, report its AUC(0-t) value.
Assay: Pharmacokinetic assay in Wistar rats, oral
Conditions: rat, plasma, 30 mg/kg
Answers are plain numbers, in ng·h/mL.

Example results:
In [3]: df
Out[3]:
                                   molecule  result_type  value_reported
0  [2H]C([2H])([2H])C([2H])([2H])n1nccc1C(=O)NC(C(=O)Nc1ncc(C(COC)N2CC(F)(F)CCC2=O)s1)C1CCC(C)CC1 (stereo not drawn)     AUC(0-t)           21000
1  C[C@@H]1CN(C[C@H](c2cnc(NC(=O)[C@@H](NC(=O)C3(F)CC3)[C@H]3CC[C@H](C)CC3)s2)N2CC(F)(F)CNC2=O)CCO1     AUC(0-t)           14200

Next:
Q. For the molecule C[C@@H]1CN(C[C@H](c2cnc(NC(=O)[C@@H](NC(=O)C3(F)CC3)[C@H]3CC[C@H](C)CC3)s2)N2CC(F)(F)CNC2=O)[C@@H](C)CO1 , what AUC(0-t) is on record?
A. 14300

====

For each entry below, report its IC50 value.
Molecular target: human IL-17RA and IL-17A proteins (Homo sapiens, UniProt Q16552)
Sequence (Q16552 24-155): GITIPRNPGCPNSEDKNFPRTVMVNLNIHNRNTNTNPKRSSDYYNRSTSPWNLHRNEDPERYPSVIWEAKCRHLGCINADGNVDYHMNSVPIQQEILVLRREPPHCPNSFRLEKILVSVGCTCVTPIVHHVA

Lab note: each molecule below needs its IC50 filled in.
1. COC[C@H](c1cnc(NC(=O)[C@@H](NC(=O)C2(F)CC2)[C@H]2CC[C@H](C)CC2)s1)N1CC(F)(F)CNC1=O [Example 592]
2. C[C@H]1CC[C@H]([C@H](NC(=O)C2(F)CC2)C(=O)Nc2ncc([C@@H](CN3CCO[C@H](CF)C3)N3CC(F)(F)CNC3=O)s2)CC1 [Example 696]
3. CC[C@@H]1CN(C[C@H](c2cnc(NC(=O)[C@@H](NC(=O)C3(F)CC3)[C@H]3CC[C@H](C)CC3)s2)N2CC(F)(F)CNC2=O)CCO1 [Example 704]
4. C[C@@H]1COCCN1C[C@H](c1cnc(NC(=O)[C@@H](NC(=O)C2(F)CC2)[C@H]2CC[C@H](C)CC2)s1)N1CC(F)(F)CNC1=O [Example 1015]
5. C[C@@H]1CN(C[C@H](c2cnc(NC(=O)[C@@H](NC(=O)C3(F)CC3)[C@H]3CC[C@H](C)CC3)s2)N2CC(F)(F)CNC2=O)C[C@@H](C)O1 [Example 726]

A.
6.4 nM
5 nM
4.9 nM
4 nM
4.8 nM

Q. Under human IL-17RA and IL-17A proteins (Homo sapiens, UniProt Q16552): IC50 value of CC1CCC(C(NC(=O)C2(F)CC2)C(=O)Nc2ncc(C(CN3C(C)COCC3C)N3CC(F)(F)CNC3=O)s2)CC1 (stereo not drawn) [Example 739] ?
A. 5 nM

====

Target: human IL-17RA and IL-17A proteins (Homo sapiens)
Sequence (Q16552 24-155): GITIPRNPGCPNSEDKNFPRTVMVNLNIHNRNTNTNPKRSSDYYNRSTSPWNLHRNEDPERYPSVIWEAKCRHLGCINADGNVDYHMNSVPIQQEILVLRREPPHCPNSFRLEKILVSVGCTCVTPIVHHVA
For each entry below, report its pIC50 value.
Give bare numbers, as −log10 of the molar value.

                      smiles_representation  result_type  value_reported
0  C[C@H]1CN(C[C@H](c2cnc(NC(=O)[C@@H](NC(=O)C3(F)CC3)[C@H]3CC[C@H](C)CC3)s2)N2CC(F)(F)CNC2=O)CCO1        pIC50            8.05
1  [2H]C([2H])([2H])OC1(C)CCN(C[C@H](c2cnc(NC(=O)[C@@H](NC(=O)C3(F)CC3)[C@H]3CC[C@H](C)CC3)s2)N2CC(F)(F)CNC2=O)CC1        pIC50            8.05

Q. For the compound C[C@@H]1CN(C[C@H](c2cnc(NC(=O)[C@@H](NC(=O)C3(F)CC3)[C@H]3CC[C@H](C)CC3)s2)N2CC(F)(F)CNC2=O)[C@H](C)CO1 , what pIC50 is on record?
A. 8.44
